Reported CC50 by item:
protocol text: Concentration of compound affecting viability of the uninfected cells by 50% when assayed in parallel with antiviral assay in MT-4 cells
Type: cell-based, MT4
experimental conditions: human, uninfected MT-4 cells; read-out: TC50 (the source's name)
readout type: CC50

>>> reported_result("Nc1ncnc2c1ncn2CCOCP(=O)(O)O")
"40 µM"
>>> reported_result("Nc1nc(N)c2ncn([C@H]3C=C[C@@H](OCP(=O)(O)O)O3)c2n1")
"> 100 µM"
>>> reported_result("Nc1ncnc2c1ncn2[C@H]1C=C[C@@H](OCP(=O)(O)O)O1")
"> 100 µM"
